The reader will find reported MIC values listed item by item below.
System: Staphylococcus aureus
ASSAY PROCEDURE: Antibiotic activity against methicillin-sensitive Staphylococcus aureus ATCC 29213 assessed as inhibition of bacterial growth incubated for 16 hrs in presence of 0.002% polysorbate 80
Format: functional
Bridge positions count the residues as written; N and C are the ends. Square brackets hold non-standard residues; d marks the D form. Peptide text beside a SMILES is read from it. I, II: the chains in the order shown. d(aIle) = CC[C@H](C)[C@@H](N)C(=O)O; dNMeF = CN[C@H](Cc1ccccc1)C(=O)O; Chg = N[C@H](C(=O)O)C1CCCCC1
Answer with a number only, understood to be in µg/mL.

The following molecules have reported results that may help.
| MOLECULE | RESULT UNIT | MIC |
| --- | --- | --- |
| CC[C@H](C)[C@H](NC(=O)[C@@H](Cc1ccccc1)NC)C(=O)N[C@@H](CO)C(=O)N[C@H](CCCNC(=N)N)C(=O)N[C@@H](C(=O)N[C@H](C(=O)OC[C@H](N)C(=O)N[C@H]1C(=O)N[C@@H](C)C(=O)N[C@@H](CC(C)C)C(=O)N[C@@H]([C@@H](C)CC)C(=O)O[C@H]1C)[C@@H](C)CC)[C@@H](C)CC (I: H-[dNMeF]IS[dR][d(aIle)]I / II: H-S[dT]ALI; ester I:C-II:1, II:2-II:C) | µg/mL | 0.125 |
| CC[C@H](C)[C@H](NC(=O)[C@@H](Cc1ccccc1)NC)C(=O)N[C@@H](CO)C(=O)N[C@H](CCCNC(=N)N)C(=O)N[C@@H](C(=O)N[C@H](C(=O)N[C@@H](CO)C(=O)N[C@H]1C(=O)N[C@@H](C)C(=O)N[C@@H](CC(C)C)C(=O)N[C@@H]([C@@H](C)CC)C(=O)O[C@H]1C)[C@@H](C)CC)[C@@H](C)CC | µg/mL | 0.25 |

We now examine a further molecule.
Would you mind telling me what MIC value was observed for CC[C@H](C)[C@H](NC(=O)[C@@H](Cc1ccccc1)NC)C(=O)N[C@@H](CO)C(=O)N[C@H](CCCNC(=N)N)C(=O)N[C@@H](C(=O)N[C@H](C(=O)OC[C@H](N)C(=O)N[C@H]1C(=O)N[C@@H](C)C(=O)N[C@@H](C2CCCCC2)C(=O)N[C@@H]([C@@H](C)CC)C(=O)O[C@H]1C)[C@@H](C)CC)[C@@H](C)CC (I: H-[dNMeF]IS[dR][d(aIle)]I / II: H-S[dT]A[Chg]I; ester I:C-II:1, II:2-II:C) ?
1
